- System: C. elegans
- measurement description: microbe, parasite or virus in culture
- condition set: Caenorhabditis elegans, 24 h, read-out: Percentage of motility inhibition 24 h, Table S2, C. elegans SS assay, 110 μM, 24 h, averages of 4 data points
quantity kind: inhibition at 110 µM (%)
Just the number in %, nothing appended.

Solved entries:
| compound | tested target | endpoint unit | inhibition at 110 µM |
| --- | --- | --- | --- |
| CC(=O)OCC(CCn1cnc2cnc(N)nc21)COC(C)=O | C. elegans | % | 2 |
| CC(C)[C@]12O[C@H]1[C@@H]1O[C@]13[C@]1(O[C@H]1C[C@H]1C4=C(CC[C@@]13C)C(=O)OC4)[C@@H]2O [Triptolide] | C. elegans | % | 71 |
| O=C1C=CC(=O)N1 [Maleimide] | C. elegans | % | 32 |
| Nc1ccc(S(N)(=O)=O)cc1 [Sulfanilamide] | C. elegans | % | 7 |

Shift focus to the following entry.
Prompt: Suppose we examine the compound COc1c2occc2cc2ccc(=O)oc12 ; what inhibition at 110 µM value has been reported?
Completion: 5

---

- Test system: C. elegans
- condition set: Table S2, C. elegans SS assay, 110 μM, 0 h, averages of 4 data points
quantity kind: Percentage of motility inhibition 0 h (%)
Provide only the numeric value, understood in %.

Examples from the recorded data:
| compound | Percentage of motility inhibition 0 h / % |
| --- | --- |
| C[C@H](CC[C@@H](O[C@@H]1O[C@H](CO[C@@H]2O[C@H](CO)[C@@H](O)[C@H](O)[C@H]2O)[C@@H](O)[C@H](O)[C@H]1O[C@@H]1O[C@H](CO)[C@@H](O)[C@H](O)[C@H]1O)C(C)(C)O)[C@H]1CC[C@@]2(C)[C@@H]3CC=C4[C@@H](CC[C@H](O[C@@H]5O[C@H](CO[C@@H]6O[C@H](CO)[C@@H](O)[C@H](O)[C@H]6O)[C@@H](O)[C@H](O)[C@H]5O)C4(C)C)[C@]3(C)[C@H](O)C[C@]12C [Mogroside V] | 19 |
| CN[C@@H](Cc1c[nH]c2ccccc12)C(=O)O [L‐(+)‐Abrine] | 0 |
| C[S+]([O-])CCCC/C(=N\OS(=O)(=O)O)S[C@@H]1O[C@H](CO)[C@@H](O)[C@H](O)[C@H]1O (some centres unmarked) [Glucoraphanin] | 12 |

Prompt: Which value of Percentage of motility inhibition 0 h has been reported for CC(CC(=O)CC(C)(O)C1CC(=O)C2(C)C3=C(C(=O)CC12C)C1(C)CCC(=O)C(C)(C)C1CC3O)C(=O)O (centres unmarked) [Ganoderic acid N] in the records?
Completion: 0

Prompt: Would you kindly repeat that for CO/N=C(\C(=O)N[C@@H]1C(=O)N2C(C(=O)[O-])=C(CSC(=O)c3ccco3)CS[C@H]12)c1csc(N)n1.[Na+] [Ceftiofur (sodium)] ?
Completion: 17

Prompt: Do the same for CC1=CC[C@@]23C[C@@H]1C(C)(C)[C@@H]2CC[C@H]3C [(-)-Cedrene] please
Completion: 0

Prompt: How about CC(C)=CCC[C@](C)(O[C@@H]1O[C@H](CO[C@@H]2OC[C@@H](O)[C@H](O)[C@H]2O)[C@@H](O)[C@H](O)[C@H]1O)[C@H]1CC[C@]2(C)[C@@H]1[C@H](O)C[C@@H]1[C@@]3(C)CC[C@H](O[C@@H]4O[C@H](CO)[C@@H](O)[C@H](O)[C@H]4O[C@@H]4O[C@H](CO)[C@@H](O)[C@H](O)[C@H]4O[C@@H]4OC[C@@H](O)[C@H](O)[C@H]4O)C(C)(C)[C@@H]3CC[C@]12C [Notoginsenoside Fc] ?
Completion: 0

Prompt: And COc1ccc2c(C)c3[n+](cc2c1OC)CCc1cc2c(cc1-3)OCO2.[Cl-] [13‐Methylberberine (chloride)] ?
Completion: 0
